assay_details: Retardation factor of the compound using CHCl3-MeOH at ratio of 3:1 as solvent system by thin layer chromatography
Assay type: physicochemical
Below, each of the compounds is paired with its reported Rf value.
Reply briefly: the number, and no unit.

Example entries begin here.
CCOC(=O)CC[C@H](NC(=O)[C@H](CCC(=O)O)NC(=O)c1ccc(N(C)Cc2cnc3nc(N)nc(N)c3n2)cc1)C(=O)OCC	0.1
CCOC(=O)CC[C@H](NC(=O)CC[C@H](NC(=O)c1ccc(N(C)Cc2cnc3nc(N)nc(N)c3n2)cc1)C(=O)O)C(=O)OCC	0.02
CCOC(=O)CC[C@H](NC(=O)c1ccc(N(C)Cc2cnc3nc(N)nc(N)c3n2)cc1)C(=O)N[C@@H](CCC(=O)OCC)C(=O)OCC	0.73
CCOC(=O)CC[C@H](NC(=O)CC[C@@H](NC(=O)c1ccc(N(C)Cc2cnc3nc(N)nc(N)c3n2)cc1)C(=O)N[C@@H](CCC(=O)OCC)C(=O)OCC)C(=O)OCC	0.77
CCOC(=O)CCC(NC(=O)CCC(NC(=O)c1ccc(N(C)Cc2cnc3nc(N)nc(N)c3n2)cc1)C(=O)NC(CCC(=O)OCC)C(=O)OCC)C(=O)OCC (mixture of isomers)	0.77

Give its Rf value. Item: CCOC(=O)CC[C@H](NC(=O)CC[C@H](NC(=O)c1ccc(N(C)Cc2cnc3nc(N)nc(N)c3n2)cc1)C(=O)N[C@@H](CCC(=O)OCC)C(=O)OCC)C(=O)OCC
0.78

Would you mind doing CCOC(=O)CC[C@H](NC(=O)CC[C@H](NC(=O)c1ccc(N(C)Cc2cnc3nc(N)nc(N)c3n2)cc1)C(=O)OCC)C(=O)OCC as well?
0.76

// provenance: ChEMBL document CHEMBL3244255
